Test: in vitro
Details: human, hela cells, % viability
So I've got a bunch of molecules here, and I need their viability at 28.5 h, 10 µM values.
Numbers only, in %.

// solved cases for viability at 28.5 h, 10 µM follow
> print(dat)
                                   molecule           property.measured  measured.value
1  COc1ccc(C(=O)C2=C(O)C(=O)N(CCN3CCOCC3)C2c2ccc(O)c(OC)c2)c(C)c1 (stereo not drawn)  viability at 28.5 h, 10 µM              88
2  CC1=NN(c2nc(-c3ccc(Br)cc3)cs2)C(=O)C1/N=N/c1cccc(CO)c1 (stereo not drawn)  viability at 28.5 h, 10 µM             104
3  CCOc1ccc(S(=O)(=O)N2CCN(Cc3cccc(F)c3C)CC2)c2cccnc12  viability at 28.5 h, 10 µM            78.3
4  O=C(CC1CC1)N1CCC2(CCN(Cc3ccccc3)C2)C1 (stereo not drawn)  viability at 28.5 h, 10 µM            93.9
5  Brc1cccc(/C=N/N2CCN(Cc3cccc4ccccc34)CC2)c1  viability at 28.5 h, 10 µM              98
6    CCc1cc(Br)ccc1S(=O)(=O)Nc1cccc2cccnc12  viability at 28.5 h, 10 µM            87.8
7         CC(C)n1c(=O)n(CCN2CCCC2)c2cccnc21  viability at 28.5 h, 10 µM            98.6
8  CCOC(=O)c1cc(NC(=O)CSc2nc3ccccc3[nH]2)ccc1Cl  viability at 28.5 h, 10 µM            99.8

Value lookup for viability at 28.5 h, 10 µM; key = COc1ccccc1-c1nccnc1N[C@H](C)c1ccccc1
107

* * *

So I've got a bunch of compounds here, and I need their viability at 28.5 h, 10 µM values.
Assay: in vitro
Conditions: human, hela cells, % viability
Answers are plain numbers, in %.

// solved cases for viability at 28.5 h, 10 µM follow
> print(dat)
                                   compound           property.measured  measured.value
1  COc1ccc2[nH]cc(CCNC(=O)CCC(=O)O)c2c1 [CBK116605]  viability at 28.5 h, 10 µM            96.5
2  O=C(CNC(=O)c1ccc(Br)cc1)NC1CCCC1 [CBK269591]  viability at 28.5 h, 10 µM            90.3
3  COc1ccc2[nH]cc(CCNC(=O)[C@H](CC(C)C)NC(C)=O)c2c1 [CBK116210]  viability at 28.5 h, 10 µM             107
4  O=C1OC(c2ccccc2)=C/C1=C1/C(=O)Nc2ccccc21 [CBK115375]  viability at 28.5 h, 10 µM             102
5  Clc1ccccc1COc1cccc(/C=N/Nc2nc(N3CCCC3)nc(N3CCCC3)n2)c1 [CBK019076]  viability at 28.5 h, 10 µM            89.8
6  O=C(COc1ccc(CCO)cc1)Nc1ccccc1-c1ccccc1 [CBK269666]  viability at 28.5 h, 10 µM            80.9
7  COCCCn1c(=O)[nH]c2ncc(-c3cccc(/C=C/C(=O)O)c3)nc21 [CBK065107]  viability at 28.5 h, 10 µM             104
8  CCCS(=O)(=O)N1CCC2(CCCN(Cc3cccc(F)c3F)C2=O)C1 (stereo not drawn) [CBK306694]  viability at 28.5 h, 10 µM            90.8

As a next step, examine the compound that follows.
Value lookup for viability at 28.5 h, 10 µM; key = O=C(c1ccccc1F)N1CC2CCCC(C1)C2N1CCOCC1 (stereo not drawn) [CBK285262]
79.9

* * *

Assay: in vitro
Conditions: human, hela cells, % viability
PROPERTY_MEASURED: viability at 28.5 h, 10 µM

// solved cases for viability at 28.5 h, 10 µM follow
> print(dat)
                                   molecule           property.measured  measured.value
1  COc1cnc(-c2cnn(C)c2)c(NC(=O)Cc2ccccc2)n1  viability at 28.5 h, 10 µM            101%
2  Cc1cccc(Cc2cccc(C3CCCN(S(=O)(=O)c4cn(C)nc4C)C3)n2)c1 (stereo not shown)  viability at 28.5 h, 10 µM            101%
3  COc1ccccc1N1CCN(C(=O)CN2C(=O)c3ccccc3C2=O)CC1  viability at 28.5 h, 10 µM           95.5%

Can you give me viability at 28.5 h, 10 µM for all of these, one by one?
1. Cn1nc(C2CC2)cc1C(=O)NCCCN1CCCc2ccccc21
2. Cc1cc2ccccc2n2c(=O)n(CC(=O)N3CCCCC3C)nc12 (stereo not shown)
3. O=C(O)CN(Cc1ccccc1)Cc1ccccc1
4. Cc1ccc(CSCC(=O)N2CCC(Cc3ccccc3)CC2)cc1
5. CCN1CCCCC1CNC(=O)Cn1nc(C)c(C)c1C (stereo not shown)
6. Cc1nn(-c2ccccc2)c2sncc12
7. Cc1ccc(NC2=NC(C(=O)Nc3ccc(C)c(C)c3)CC(=O)N2)cc1 (stereo not shown)

["90.7%", "87.1%", "104%", "95.6%", "105%", "109%", "96.9%"]

* * *

Assay: in vitro
Conditions: human, hela cells, % viability
So I've got a bunch of compounds here, and I need their viability at 28.5 h, 10 µM values.
One number for each entry, in %.

> print(dat)
                                   compound           property.measured  measured.value
1  Cc1cccc(C)c1NC(=O)Nc1ccc(F)cc1F [CBK300526]  viability at 28.5 h, 10 µM            90.2
2  O=C(c1cc(S(=O)(=O)N2CCOCC2)ccc1Cl)N1CCCC(CO)C1 (stereo not drawn) [CBK304236]  viability at 28.5 h, 10 µM             104

Can you give me viability at 28.5 h, 10 µM for all of these, one by one?
1. Cc1ccc([N+](=O)[O-])cc1NC(=O)c1cc(S(=O)(=O)N(C)C)c(Cl)cc1Cl [CBK266764]
2. Brc1cnn(-c2ccccc2)c1 [CBK027172]
3. O=C1CC(C(=O)N2CCN(C(=O)c3ccco3)CC2)c2ccccc21 (stereo not drawn) [CBK144464]
4. COc1ccccc1-c1cccc(NCC(c2cccnc2)N(C)C)n1 (stereo not drawn) [CBK037770]
5. COc1ccc(C(C)C)cc1-c1cnc2cccnc2c1N [CBK081211]

[105, 87.6, 105, 103, 105]

Can you give me viability at 28.5 h, 10 µM for all of these, one by one?
1. Cc1ccc(S(=O)(=O)Nc2ccc(Nc3nc(-c4ccccc4)cn4ccnc34)cc2)cc1 [CBK037303]
2. Nc1n[nH]c(=O)c2c1ncn2[C@H]1C[C@@H](O)[C@@H](CO)O1 [CBK201169]

1: 104; 2: 93.7

* * *

Test: in vitro
Conditions: human, hela cells, % viability
hey, just use True if measured viability at 28.5 h, 10 µM is less than 90%, otherwise False

> print(dat)
                                   molecule  category
1  COc1ccccc1-c1ccc(CC2(C(=O)NCc3ccc(F)cc3)CCOCC2)cc1     False
2  O=C(O)C1CCC(N2C(=O)C3C4CCC(C4)C3C2=O)CC1 (stereo not drawn)      True

Consider O=C(Nc1ccc(N2CCNCC2)c2ccccc12)c1coc2c1C(=O)CCC2 [CBK038946T] . Does its viability at 28.5 h, 10 µM lie strictly below 90%?
True

Repeat with C(=N\N1CCOCC1)/c1ccc2c(c1)OCO2
False

Repeat with S=C(NCc1ccc(Cl)cc1)Nc1ccncc1
True

Repeat with O=C(NCc1ccc(F)cc1)[C@H]1CN2CCC1C[C@@H]2Cn1cc(C2(O)CCCC2)nn1 (stereo partly drawn)
False

Repeat with CC(C)(C)OC(=O)N1CCN(c2cncc(NCc3ccccc3)n2)CC1
False

* * *

Test: in vitro
Conditions: human, hela cells, % viability
PROPERTY_MEASURED: viability at 28.5 h, 10 µM

> print(dat)
                                   compound           property.measured  measured.value
1  C[C@@H](Cn1nc2c(cc1=O)CCCC2)NC(=O)c1ccccc1F [CBK284560]  viability at 28.5 h, 10 µM           92.5%
2  CCCCn1nc2[nH]c(=O)cc(C(F)F)c2c1C [CBK288011]  viability at 28.5 h, 10 µM           93.8%
3  COCC(C)NC(=O)c1cc(-c2cccs2)nc2onc(C)c12 (centres unmarked) [CBK306473]  viability at 28.5 h, 10 µM            104%
4  CN(C)S(=O)(=O)NCCc1ccc(S(N)(=O)=O)cc1 [CBK022388]  viability at 28.5 h, 10 µM           99.5%
5  NC1CC(c2cc(NCCOc3ccccc3Cl)ncn2)C1 (centres unmarked) [CBK307167]  viability at 28.5 h, 10 µM           73.7%
6  CCCCC(=O)Nc1ccc(C(=O)N2CCN(C)CC2)cc1 [CBK304662]  viability at 28.5 h, 10 µM            105%

Can you give me viability at 28.5 h, 10 µM for all of these, one by one?
1. COc1ccc(-n2c(SCC(=O)Nc3cccc(C(C)=O)c3)nc3sc(C)c(C)c3c2=O)cc1 [CBK091806]
2. COc1ccc(S(=O)(=O)Nc2nccnc2-c2ccc(CN3C(=O)CCC3=O)cc2)cc1 [CBK050699]
3. O=C(c1ccccc1F)N1C[C@H](c2ccsc2)[C@H]2CN(Cc3ccccc3)CC[C@H]21 [CBK285655]
4. COc1ccc(CCC(=O)Nc2cccc(OCCC3CCNCC3)c2)cc1OC [CBK138350]
5. O=C(O)c1ccc2[nH]cc(CN3CCOCC3)c2c1 [CBK287081]
6. COc1ccc(C2(C(F)(F)F)NC(=O)N3CCN=C3S2)cc1 (centres unmarked) [CBK019170]

97.6%
110%
96.5%
95.6%
89.9%
106%

Can you give me viability at 28.5 h, 10 µM for all of these, one by one?
1. CNC(c1ccncc1)C(NC)c1ccncc1 (centres unmarked) [CBK015546]
2. Cn1ncc2c1CCCC2NC(=O)NCc1ccc(C#N)cc1F (centres unmarked) [CBK305193]
3. Nc1c(C(=S)c2cccs2)oc2c1C(c1ccccc1)CC(=O)N2 (centres unmarked) [CBK020690]
4. O=C(Nc1ccc(F)cc1)c1ccccc1NS(=O)(=O)c1cc(Br)c(Cl)s1 [CBK045405]
5. O=C(Cn1ccc([N+](=O)[O-])n1)NCc1ccco1 [CBK268999]
6. Cn1c(=O)[nH]c(=O)c2[nH]c(CN3CCN(Cc4ccccc4)CC3)nc21 [CBK269592]

1: 95.9%; 2: 85.4%; 3: 42.2%; 4: 92.8%; 5: 89.6%; 6: 98.5%

Can you give me viability at 28.5 h, 10 µM for all of these, one by one?
1. Cc1cc(C(=O)NC(Cc2ccncc2)C2CC(O)C2)c(C)o1 (centres unmarked) [CBK307181]
2. CC1CCc2c(sc3ncnc(OCC(=O)N(C)CCC#N)c23)C1 (centres unmarked) [CBK304976]

1. 96.5%
2. 89.8%
